Target: T1, sIL-6R (soluble IL-6 receptor; SBH Sciences) (human, UniProt P08887 20-365)
T1 construct: also called human IL-6R
T1 sequence: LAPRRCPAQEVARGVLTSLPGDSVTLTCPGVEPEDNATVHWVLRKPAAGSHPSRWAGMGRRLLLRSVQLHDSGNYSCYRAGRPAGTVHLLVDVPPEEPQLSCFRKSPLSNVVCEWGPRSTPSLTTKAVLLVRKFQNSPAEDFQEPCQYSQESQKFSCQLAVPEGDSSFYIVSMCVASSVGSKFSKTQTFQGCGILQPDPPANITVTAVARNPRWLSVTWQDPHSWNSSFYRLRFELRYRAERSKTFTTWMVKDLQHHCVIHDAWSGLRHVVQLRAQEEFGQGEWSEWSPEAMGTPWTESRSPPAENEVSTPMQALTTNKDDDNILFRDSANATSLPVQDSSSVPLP
Test: SPR (BIAcore 3000), antibody on chip, sIL-6R analyte, 25 C
Method: All SPR measurements were performed on a BIAcore 3000 instrument (GE Biosciences, Piscataway, N.J.). BIAcore Software-BIAcore 3000 Control Software V3.2 was used for the operation and control of the BIAcore 3000 instrument. […] Data was analyzed by using the Kinetics Wizard and the manual fitting programs that are both included with the BiaEvaluation Software V4.1.
Catalogue of binders with associated Relative Affinity

# input binder: 248# (antibody, human IgG1, kappa, V domains shown, also called Sample # 248) VH: QVQLQESGPGLVRPSQTLSLTCTVSGYSITSDHAWSWVRQPPGRGLEWIGYISYSGMITYNPSLKSRVTMLRDTSKNQFSLRLSSVTAADTAVYYCARTLARMTAIDFWGQGSLVTVSS VL: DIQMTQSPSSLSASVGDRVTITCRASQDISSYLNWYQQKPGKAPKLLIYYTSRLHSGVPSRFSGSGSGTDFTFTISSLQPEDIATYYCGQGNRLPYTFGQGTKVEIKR ; wanted: its Relative Affinity
14.8 fold vs 25 (Tocilizumab)

# input binder: Tocilizumab (antibody, human IgG1, kappa, V domains shown, also called 25; 25(control)) VH: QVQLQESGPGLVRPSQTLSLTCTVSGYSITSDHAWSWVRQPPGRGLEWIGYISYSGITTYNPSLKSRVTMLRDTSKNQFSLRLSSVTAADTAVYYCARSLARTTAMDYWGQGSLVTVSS VL: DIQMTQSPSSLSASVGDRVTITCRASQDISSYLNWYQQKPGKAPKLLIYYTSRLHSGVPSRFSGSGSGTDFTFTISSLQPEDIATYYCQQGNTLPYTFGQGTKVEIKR ; wanted: its Relative Affinity
1 fold vs 25 (Tocilizumab)

# input binder: 250# (antibody, human IgG1, kappa, V domains shown, also called Sample # 250) VH: QVQLQESGPGLVRPSQTLSLTCTVSGYSITSDHAWSWVRQPPGRGLEWIGYISYSGMTTYNPSLKSRVTMLRDTSKNQFSLRLSSVTAADTAVYYCARSLARITAMDYWGQGSLVTVSS VL: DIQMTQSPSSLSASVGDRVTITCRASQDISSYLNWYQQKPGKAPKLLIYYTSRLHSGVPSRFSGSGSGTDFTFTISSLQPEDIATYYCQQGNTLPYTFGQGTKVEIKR ; wanted: its Relative Affinity
7.9 fold vs 25 (Tocilizumab)

# input binder: 202# (antibody, human IgG1, kappa, V domains shown) VH: QVQLQESGPGLVRPSQTLSLTCTVSGYSITSDHAWSWVRQPPGRGLEWIGYISYSGITTYNPSLKSRVTMLRDTSKNQFSLRLSSVTAADTAVYYCARVLARITAMDYWGQGSLVTVSS VL: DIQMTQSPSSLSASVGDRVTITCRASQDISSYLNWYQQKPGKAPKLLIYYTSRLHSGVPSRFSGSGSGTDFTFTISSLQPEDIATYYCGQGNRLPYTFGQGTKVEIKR ; wanted: its Relative Affinity
119 fold vs 25 (Tocilizumab)

Next:
# input binder: 247# (antibody, human IgG1, kappa, V domains shown, also called Sample # 247) VH: QVQLQESGPGLVRPSQTLSLTCTVSGYSITSDHAWSWVRQPPGRGLEWIGYISYSGMTTYNPSLKSRVTMLRDTSKNQFSLRLSSVTAADTAVYYCARCLARMTAMDYWGQGSLVTVSS VL: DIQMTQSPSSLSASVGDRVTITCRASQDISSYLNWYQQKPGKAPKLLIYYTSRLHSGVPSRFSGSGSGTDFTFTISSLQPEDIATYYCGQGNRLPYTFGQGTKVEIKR ; wanted: its Relative Affinity
13.2 fold vs 25 (Tocilizumab)
